meta.source: ChEMBL document CHEMBL1201862

# Test system: MOLT-4
# assay.procedure: NCI tumour cell line growth inhibition, 48 h
Activity calls are given as the source filed them. No stated cut-off is given here; in the data, active = GI50 up to about 1.1 µM and inactive = higher.
Measured GI50 accompanies every entry in the list below.
value.type: GI50

>  <molecule>
O=C1CCC(=O)C(C(=O)CCC(=O)Nc2ccc(Cl)cc2)C1 (stereo unspecified)

>  <result>
> 100 µM (inactive)

$$$$
>  <molecule>
COC(=O)c1c2c(cc3c1CC1(Cc4cc5c(cc4C1)CCCC5)C3)CCCC2

>  <result>
> 100 µM (inactive)

$$$$
>  <molecule>
CSc1ccc2c(cc1=O)[C@@H](NC(=O)c1ccc([N+](=O)[O-])cc1)CCc1cc(O)c(O)c(O)c1-2

>  <result>
30.6 µM (inactive)

$$$$
>  <molecule>
CCOC(=O)c1cc(C2=CCNC2=O)c(-c2cc(C)no2)[nH]1

>  <result>
25.1 µM (inactive)

$$$$
>  <molecule>
COc1cccc(C2CC(C)(N3CCCC3)Oc3cc4c(cc32)OCO4)c1O (stereo unspecified)

>  <result>
21.8 µM (inactive)

$$$$
>  <molecule>
C=CCNc1nc2c(N)ncnc2s1

>  <result>
> 10 µM (inactive)

$$$$

---

# Test system: MDA-MB-231
# assay.procedure: NCI tumour cell line growth inhibition, 48 h
Calls of active or inactive are those of the source. No stated cut-off is given here; in the data, active = GI50 up to about 1.1 µM and inactive = higher.
Outcome codes: active, inactive

>  <molecule>
COc1cc(/C=C2/C(=O)N/C(=N\C(C)=O)N2C)ccc1OC(C)=O

>  <label.class>
inactive

$$$$
>  <molecule>
C=CO/N=[N+](\[O-])N(CC)CC

>  <label.class>
inactive

$$$$
>  <molecule>
CCN(CC)C(=S)SS(=O)(=O)c1ccc(C)cc1

>  <label.class>
inactive

$$$$
>  <molecule>
CN1Cc2ccccc2/C=C\c2ccccc21

>  <label.class>
inactive

$$$$
>  <molecule>
O=C(O)c1ccc(C(O)(c2ccccc2)c2ccccc2)cc1

>  <label.class>
inactive

$$$$
>  <molecule>
CC1CN=C(Nc2ccc(F)cc2F)S1 (centres undefined)

>  <label.class>
inactive

$$$$
>  <molecule>
CC1(C)OC(=O)C(C#N)=C1C[n+]1ccccc1

>  <label.class>
inactive

$$$$
>  <molecule>
CCCCCCCCCCCCCC(=O)O[C@H]1CC[C@H](NC(=O)[C@H](OC)[C@H](O)[C@@H](O)[C@H](O)/C=C/C(C)C)C(=O)NC1 [BENGAMIDE A]

>  <label.class>
active

$$$$
>  <molecule>
Cn1/c(=N\S(=O)(=O)c2ccccc2)[nH]c2ccccc21

>  <label.class>
inactive

$$$$
>  <molecule>
C[N+]1(CCC[N+]2(C)CC3C4C=CC(CC4)C3C2)CCOCC1 (centres undefined)

>  <label.class>
inactive

$$$$
>  <molecule>
CNc1nc(=S)[nH]c2sc3c(c12)CCCC3

>  <label.class>
inactive

$$$$
>  <molecule>
[O-]c1c[n+](CCCC[n+]2cc([O-])on2)no1

>  <label.class>
inactive

$$$$
>  <molecule>
Cn1c(=O)c2nc(Nc3ccccc3)[nH]c2n(C)c1=O

>  <label.class>
inactive

$$$$
>  <molecule>
CC(C)(CO)CNc1nc(N)nc(Cl)c1C=O

>  <label.class>
inactive

$$$$

---

Overview of reported GI50 across a group of compounds:
# System: U-251
# assay.procedure: NCI tumour cell line growth inhibition, 48 h
The source made the active and inactive calls. Cut-off read from the data, not from the text of the source: active = GI50 up to about 1.1 µM and inactive = higher.
value.type: GI50

>  <compound>
Cc1ccc(S(=O)(=O)Nn2c(C)cc3ccc(S(=O)(=O)Nc4ccccc4[N+](=O)[O-])cc3c2=O)cc1

>  <tested.on>
U-251

>  <result>
> 100 µM (inactive)

$$$$
>  <compound>
NC1=C(NC(=O)Cc2ccc(F)cc2)C(=O)c2ccccc2C1=O

>  <tested.on>
U-251

>  <result>
13.9 µM (inactive)

$$$$
>  <compound>
Cn1c(O)c(C(=O)Nc2ccc([N+](=O)[O-])cc2)c(=O)n(C)c1=S

>  <tested.on>
U-251

>  <result>
2.23 µM (inactive)

$$$$
>  <compound>
CC(=O)C(=[N+]=[N-])C(=O)N1CCOC1=O

>  <tested.on>
U-251

>  <result>
> 10 µM (inactive)

$$$$
>  <compound>
CSc1ccc2c(cc1=O)[C@@H](NC(=O)c1ccc([N+](=O)[O-])cc1)CCc1cc(O)c(O)c(O)c1-2

>  <tested.on>
U-251

>  <result>
34.2 µM (inactive)

$$$$
>  <compound>
CCN(CC)CCCC(C)Nc1ccnc(/C=C/c2ccc(Cl)cc2)c1 (stereo unspecified)

>  <tested.on>
U-251

>  <result>
1.66 µM (inactive)

$$$$

---

# System: DU-145
# assay.procedure: NCI tumour cell line growth inhibition, 48 h
Active and inactive are the calls of the source. Cut-off read from the data, not from the text of the source: active = GI50 up to about 1.1 µM and inactive = higher.
value.type: GI50

>  <compound>
CC(=O)Nc1ccc(S(=O)(=O)Nc2nnc(S(N)(=O)=O)s2)cc1

>  <value.type>
GI50

>  <result>
> 100 µM (inactive)

$$$$
>  <compound>
Nc1ncnc2c1ncn2CC(O)C(=O)O (stereo not drawn)

>  <value.type>
GI50

>  <result>
> 100 µM (inactive)

$$$$
>  <compound>
CCOC(=O)C1Cc2ccc(C)cc2C1=O (stereo not drawn)

>  <value.type>
GI50

>  <result>
> 100 µM (inactive)

$$$$
>  <compound>
CCOC(=O)c1cc(C2=CCNC2=O)c(-c2cc(C)no2)[nH]1

>  <value.type>
GI50

>  <result>
> 100 µM (inactive)

$$$$
>  <compound>
O=C1CSC(c2cccc([N+](=O)[O-])c2)N1c1ccc(-n2c(-c3ccccc3)nc3ccccc3c2=O)cc1 (stereo not drawn)

>  <value.type>
GI50

>  <result>
> 100 µM (inactive)

$$$$
>  <compound>
N=C(N)C1CN(CC=O)C(=O)NC1=O (stereo not drawn)

>  <value.type>
GI50

>  <result>
> 100 µM (inactive)

$$$$
>  <compound>
N#CC(C#N)=Cc1ccc2c(c1)OC(Cl)O2 (stereo not drawn)

>  <value.type>
GI50

>  <result>
27.7 µM (inactive)

$$$$
>  <compound>
CCN(CC)CCCNc1nncc2cc3c([nH]c4ccc(OC)cc43)c(C)c12

>  <value.type>
GI50

>  <result>
4.03 µM (inactive)

$$$$

---

# Test system: MCF7
# assay.procedure: NCI tumour cell line growth inhibition, 48 h
Calls of active or inactive are those of the source. Rule as the data show it: active = GI50 up to about 1.1 µM and inactive = higher.
Classes used: active, inactive

>  <compound>
O=C(O)c1ccc(OCc2nc3cc(C(F)(F)F)ccc3nc2-c2ccccc2)cc1

>  <label.class>
inactive

$$$$
>  <compound>
CC1(C)N=C(N)N=C(N)N1c1cccc(OCc2cccc(N)c2)c1

>  <label.class>
inactive

$$$$
>  <compound>
Cn1cc(C2NC(=O)c3ccccc3N2)c2ccccc21 (stereo not drawn)

>  <label.class>
active

$$$$
>  <compound>
Nc1ccccc1.O=P(O)(OP(=O)(O)c1ccccc1)c1ccccc1

>  <label.class>
inactive

$$$$
>  <compound>
CCN(CC)CCCC(C)Nc1ccnc(/C=C/c2ccc(Cl)cc2)c1 (stereo not drawn)

>  <label.class>
inactive

$$$$
>  <compound>
CCC(=O)C(C(C)/C=C/CCSc1ccccc1)C(O)CCCCCC(=O)OC (stereo not drawn)

>  <label.class>
inactive

$$$$
>  <compound>
Fc1ccc(-c2sc(-c3ccsc3)cc2Cc2ccsc2)cc1

>  <label.class>
inactive

$$$$
>  <compound>
COc1ccc(/C=C\c2cc(OC)c(OC)c(OC)c2)cc1OC(=O)C(N)CCC(=O)O (stereo not drawn)

>  <label.class>
active

$$$$

---

# Tested on: RXF 393
# assay.procedure: NCI tumour cell line growth inhibition, 48 h
The source made the active and inactive calls. No stated cut-off is given here; in the data, active = GI50 up to about 1.1 µM and inactive = higher.

>  <compound>
COC(=O)C12OC3CO[Si](C(C)C)(C(C)C)O[Si](C(C)C)(C(C)C)OC3C1Oc1nc(=O)ccn12 (stereo not given)

>  <tested.on>
RXF 393

>  <GI50>
16.6 µM (inactive)

$$$$
>  <compound>
CCOC(=O)c1nc2ccc([N+](=O)[O-])cc2c2c1CCO2

>  <tested.on>
RXF 393

>  <GI50>
> 100 µM (inactive)

$$$$
>  <compound>
CC(C)(Oc1ccc(/C=C/C(=O)c2ccccc2)cc1)C(=O)Nc1c(Cl)cccc1Cl

>  <tested.on>
RXF 393

>  <GI50>
> 10 µM (inactive)

$$$$
>  <compound>
CN1Cc2ccccc2/C=C\c2ccccc21

>  <tested.on>
RXF 393

>  <GI50>
30.1 µM (inactive)

$$$$
>  <compound>
CCC(=C(C#N)C#N)c1cc(OC)c(OC)c(OC)c1

>  <tested.on>
RXF 393

>  <GI50>
> 100 µM (inactive)

$$$$

---

Listing of entries alongside the reported GI50.
# System: HOP-92
# assay.procedure: NCI tumour cell line growth inhibition, 48 h
Activity calls are given as the source filed them. Cut-off read from the data, not from the text of the source: active = GI50 up to about 1.1 µM and inactive = higher.

>  <compound>
CCN(CC)CCCC(C)Nc1ccnc(/C=C/c2ccc(Cl)cc2)c1 (stereo not drawn)

>  <tested.on>
HOP-92

>  <GI50>
1.26 µM (inactive)

$$$$
>  <compound>
O=C(Nc1ccc(Cl)cc1Cl)c1cc2nc3ccccc3c(=O)n2c2ccccc12

>  <tested.on>
HOP-92

>  <GI50>
> 10 µM (inactive)

$$$$
>  <compound>
CCCCC1=C(C(=O)N2CCOCC2)C2(OCCO2)C1Cl (stereo not drawn)

>  <tested.on>
HOP-92

>  <GI50>
50.2 µM (inactive)

$$$$
>  <compound>
O=C1C=C2SC3C[C@@]24CC1[N+]1=c2c4c(c(O)c4c2=C(C=N4)CC1)N3

>  <tested.on>
HOP-92

>  <GI50>
> 100 µM (inactive)

$$$$
>  <compound>
Cc1ccc(OC(=O)N2C/C(=C\c3ccccc3)C(=O)/C(=C/c3ccccc3)C2)cc1

>  <tested.on>
HOP-92

>  <GI50>
> 100 µM (inactive)

$$$$
>  <compound>
CC(C)(c1ccc(OC#N)cc1)c1ccc(OC#N)cc1

>  <tested.on>
HOP-92

>  <GI50>
> 100 µM (inactive)

$$$$
>  <compound>
Clc1ccc(C2=CC(c3ccccc3)N3C(=N[C@H]4CCCC[C@@H]43)N2)cc1 (stereo partly drawn)

>  <tested.on>
HOP-92

>  <GI50>
4.68 µM (inactive)

$$$$
>  <compound>
O=C1c2cccc3cccc(c23)C2NCCCN12 (stereo not drawn)

>  <tested.on>
HOP-92

>  <GI50>
> 100 µM (inactive)

$$$$
>  <compound>
O=c1c2ncn(C3CCCCO3)c2n(-c2ccccc2)c(=S)n1-c1ccccc1 (stereo not drawn)

>  <tested.on>
HOP-92

>  <GI50>
9.91 µM (inactive)

$$$$
>  <compound>
CCC1=[N+]([O-])C(C)(C)NC1(C)C

>  <tested.on>
HOP-92

>  <GI50>
> 10 µM (inactive)

$$$$
>  <compound>
COc1ccc(C=C2C(C)=NN(c3cccc(Cl)c3)C23C(Cl)C(=O)N3c2nc3ccccc3s2)cc1 (stereo not drawn)

>  <tested.on>
HOP-92

>  <GI50>
9.02 µM (inactive)

$$$$
>  <compound>
CC(=O)OCCN1c2ccccc2Sc2cnccc21

>  <tested.on>
HOP-92

>  <GI50>
> 10 µM (inactive)

$$$$
>  <compound>
CC(=O)N(C(C)=O)n1c(Cc2ccc(Cl)cc2)n[nH]c1=O

>  <tested.on>
HOP-92

>  <GI50>
> 100 µM (inactive)

$$$$
